B1: PKD2L1 (parent)
chain: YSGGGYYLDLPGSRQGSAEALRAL

# Variants of: B1
# assay details: protein stability index of a GFP-peptide fusion (GPS, HEK-293T) (PSI 1-6); higher = more stable;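 further: lentivirally expressed fusions sorted by FACS into six bins by GFP to DsRed ratio, PSI derived from sequencing read proportions per bin multiplied by bin number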
# recorded conditions: c terminus: a fixed tail appended
In this section we review reported protein stability index values for a set of variants.
Form: value (number only, do not type unit).

Some entries whose results are on file:
- variant name: "R22D"
  protein stability index: 1.26
- variant name: "S13K"
  protein stability index: 1.82
- variant name: "R22W"
  protein stability index: 3.79
- variant name: "D9K"
  protein stability index: 2.59

Kindly note the recorded protein stability index for `Y7M` , which is 1.61

Kindly note the recorded protein stability index for `S17F` , which is 1.98

Kindly note the recorded protein stability index for `Y6Q` , which is 2.83

Kindly note the recorded protein stability index for `G16M` , which is 1.02

Kindly note the recorded protein stability index for `P11F` , which is 2.12

Kindly note the recorded protein stability index for `L21D` , which is 1.98

Kindly note the recorded protein stability index for `R22I` , which is 3.18

Kindly note the recorded protein stability index for `A18W` , which is 1.61

Kindly note the recorded protein stability index for `G5C` , which is 1.25

Kindly note the recorded protein stability index for `E19P` , which is 2.03

Kindly note the recorded protein stability index for `Y7Q` , which is 2.4

Kindly note the recorded protein stability index for `L8R` , which is 2.08

Kindly note the recorded protein stability index for `D9N` , which is 2.46

Kindly note the recorded protein stability index for `R14F` , which is 1.32

Kindly note the recorded protein stability index for `R14G` , which is 2.24

Kindly note the recorded protein stability index for `L10S` , which is 1.46

Kindly note the recorded protein stability index for `S2E` , which is 3

Kindly note the recorded protein stability index for `R14Y` , which is 2

Kindly note the recorded protein stability index for `L21N` , which is 1.99

Kindly note the recorded protein stability index for `P11Y` , which is 2

Kindly note the recorded protein stability index for `Y7V` , which is 2.21

Kindly note the recorded protein stability index for `A18P` , which is 1.79

Kindly note the recorded protein stability index for `Y7P` , which is 2.96

Where do the numbers come from? From the supplement of paper PMC10567573.
